// data source = PubChem BioAssay AID1919003

Test system: 786-0 complex spheroids with HUVEC/MSC, growth % test/control
Experiment: Anticancer human tumor 786-0 cell line growth inhibition [AhR];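 note: compound exposure lasted seven days before the read-out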
Conditions: second compound 1 µM; first compound 0.0316 µM; hits give low values
property.measured: viability, T/C (%)
Quick note: give the figure in %, leave out the unit.

Worked cases, answers included:
Nc1ccccc1NC(=O)c1ccc(CNC(=O)OCc2cccnc2)cc1 + Cc1ccccc1N=Nc1ccc(NC(=O)c2ccnn2C)c(C)c1 | 105
COc1cc(Nc2ncc3c(n2)-c2ccc(Cl)cc2C(c2c(F)cccc2OC)=NC3)ccc1C(=O)O + Cc1ccccc1N=Nc1ccc(NC(=O)c2ccnn2C)c(C)c1 | 108
O=C(C=Cc1cccc(S(=O)(=O)Nc2ccccc2)c1)NO + Cc1cncc(-c2nc(NCCc3c[nH]c4ccccc34)c3ncn(C(C)C)c3n2)c1 | 113
CC1(C)CCC(CN2CCN(c3ccc(C(=O)NS(=O)(=O)c4ccc(NCC5CCOCC5)c([N+](=O)[O-])c4)c(Oc4cnc5[nH]ccc5c4)c3)CC2)=C(c2ccc(Cl)cc2)C1 + CC(CO)NC(=O)c1cc(-c2ccc(Cl)cc2)nn(-c2cnn(C)c2)c1=O | 105
CC1(C)CCC(CN2CCN(c3ccc(C(=O)NS(=O)(=O)c4ccc(NCC5CCOCC5)c([N+](=O)[O-])c4)c(Oc4cnc5[nH]ccc5c4)c3)CC2)=C(c2ccc(Cl)cc2)C1 + Cc1ccccc1N=Nc1ccc(NC(=O)c2ccnn2C)c(C)c1 | 97.5
CC(C)c1c(-c2ccccc2)nc2c(C#N)c[nH]n2c1=O + Cc1cncc(-c2nc(NCCc3c[nH]c4ccccc34)c3ncn(C(C)C)c3n2)c1 | 114

Per the records, this molecule ( CC1COCCN1c1cc(-c2ccnn2C)c2ccnc(-c3ccn[nH]3)c2n1 (centres undefined) + CC(CO)NC(=O)c1cc(-c2ccc(Cl)cc2)nn(-c2cnn(C)c2)c1=O ) has viability, T/C equal to 104

Per the records, this molecule ( CC[C@@]1(O)C(=O)OCc2c1cc1n(c2=O)Cc2cc3c(CN(C)C)c(O)ccc3nc2-1 + Cc1cncc(-c2nc(NCCc3c[nH]c4ccccc34)c3ncn(C(C)C)c3n2)c1 ) has viability, T/C equal to 83.5

Per the records, this molecule ( COc1cccc2c1C(=O)c1c(O)c3c(c(O)c1C2=O)CC(O)(C(=O)CO)CC3OC1CC(N)C(O)C(C)O1 (centres undefined) + Cc1ccccc1N=Nc1ccc(NC(=O)c2ccnn2C)c(C)c1 ) has viability, T/C equal to 77.4

---

Test system: 786-0 complex spheroids with HUVEC/MSC, growth % test/control
Experiment: Anticancer human tumor 786-0 cell line growth inhibition [AhR];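 note: compound exposure lasted seven days before the read-out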
Conditions: second compound 1 µM; first compound 0.00316 µM; hits give low values
property.measured: viability, T/C (%)
Quick note: give the figure in %, leave out the unit.

Worked cases, answers included:
CC1COCCN1c1cc(-c2ccnn2C)c2ccnc(-c3ccn[nH]3)c2n1 (stereo unspecified) + CC(CO)NC(=O)c1cc(-c2ccc(Cl)cc2)nn(-c2cnn(C)c2)c1=O | 97.6
CC[C@@]1(O)C(=O)OCc2c1cc1n(c2=O)Cc2cc3c(CN(C)C)c(O)ccc3nc2-1 + CC(CO)NC(=O)c1cc(-c2ccc(Cl)cc2)nn(-c2cnn(C)c2)c1=O | 108
Nc1ncn(C2CC(O)C(CO)O2)c(=O)n1 (stereo unspecified) + Cc1cncc(-c2nc(NCCc3c[nH]c4ccccc34)c3ncn(C(C)C)c3n2)c1 | 124
CC[C@@]1(O)C(=O)OCc2c1cc1n(c2=O)Cc2cc3c(CN(C)C)c(O)ccc3nc2-1 + Cc1ccccc1N=Nc1ccc(NC(=O)c2ccnn2C)c(C)c1 | 106

Per the records, this compound ( Cn1ncnc1C1c2n[nH]c(=O)c3cc(F)cc(c23)NC1c1ccc(F)cc1 (stereo unspecified) + CC(CO)NC(=O)c1cc(-c2ccc(Cl)cc2)nn(-c2cnn(C)c2)c1=O ) has viability, T/C equal to 105

Per the records, this compound ( Nc1ncn(C2CC(O)C(CO)O2)c(=O)n1 (stereo unspecified) + Cc1ccccc1N=Nc1ccc(NC(=O)c2ccnn2C)c(C)c1 ) has viability, T/C equal to 106

---

System: 786-0 complex spheroids with HUVEC/MSC, growth % test/control
Assay: Anticancer human tumor 786-0 cell line growth inhibition [AhR]; active = viability on the fitted dose curve at most 10% of control; inactive = the rest;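 note: compound exposure lasted seven days before the read-out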
Conditions: second compound 0.1 µM; first compound 1 µM
From the text: Multicellular complex tumor spheroid response to aryl hydrocarbon receptor antagonists in combination with a variety of drugs and investigational agents in selected tumor cell lines […] Compounds. […] If the clinical Cmax for an agent had not been determined, the highest concentration tested was 10 microM (Table 1). […]
Give one outcome, nothing more. List: true (1) = active, false (0) = inactive

Reference set (2 entries):
CC1(C)CCC(CN2CCN(c3ccc(C(=O)NS(=O)(=O)c4ccc(NCC5CCOCC5)c([N+](=O)[O-])c4)c(Oc4cnc5[nH]ccc5c4)c3)CC2)=C(c2ccc(Cl)cc2)C1 + Cc1ccccc1N=Nc1ccc(NC(=O)c2ccnn2C)c(C)c1 | false (0)
Nc1ccn(C2OC(CO)C(O)C2(F)F)c(=O)n1 (stereo not drawn) + CC(CO)NC(=O)c1cc(-c2ccc(Cl)cc2)nn(-c2cnn(C)c2)c1=O | true (1)

Now take the following compound into account.
Task: # outcome recorded in this test, key = COc1cccc2c1C(=O)c1c(O)c3c(c(O)c1C2=O)CC(O)(C(=O)CO)CC3OC1CC(N)C(O)C(C)O1 (stereo not drawn) + Cc1ccccc1N=Nc1ccc(NC(=O)c2ccnn2C)c(C)c1
Result: true (1)

---

Test system: 786-0 complex spheroids with HUVEC/MSC, growth % test/control
Test: Anticancer human tumor 786-0 cell line growth inhibition [AhR];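 note: compound exposure lasted seven days before the read-out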
Details: second compound 3.16 µM; first compound 3 µM; hits give low values
property.measured: viability, T/C

Worked cases, answers included:
O=C(C=Cn1cnc(-c2cc(C(F)(F)F)cc(C(F)(F)F)c2)n1)NNc1cnccn1 + Cc1ccccc1N=Nc1ccc(NC(=O)c2ccnn2C)c(C)c1 | 18.2%
O=C(C=Cn1cnc(-c2cc(C(F)(F)F)cc(C(F)(F)F)c2)n1)NNc1cnccn1 + CC(CO)NC(=O)c1cc(-c2ccc(Cl)cc2)nn(-c2cnn(C)c2)c1=O | 9.29%

Next molecule, viability, T/C to be filled in.
Per the records, this molecule ( CCN(c1cc(-c2ccc(CN3CCOCC3)cc2)cc(C(=O)NCc2c(C)cc(C)[nH]c2=O)c1C)C1CCOCC1 + Cc1cncc(-c2nc(NCCc3c[nH]c4ccccc34)c3ncn(C(C)C)c3n2)c1 ) has viability, T/C equal to 76.9%

---

Test system: 786-0 complex spheroids with HUVEC/MSC, growth % test/control
Test: Anticancer human tumor 786-0 cell line growth inhibition [AhR];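 note: compound exposure lasted seven days before the read-out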
Conditions: second compound 3.16 µM; first compound 3 µM; hits give low values
// reported viability, T/C per item
Quick note: give the figure in %, leave out the unit.

Worked cases, answers included:
CCN(c1cc(-c2ccc(CN3CCOCC3)cc2)cc(C(=O)NCc2c(C)cc(C)[nH]c2=O)c1C)C1CCOCC1 + Cc1ccccc1N=Nc1ccc(NC(=O)c2ccnn2C)c(C)c1 | 94.2
O=C(C=Cn1cnc(-c2cc(C(F)(F)F)cc(C(F)(F)F)c2)n1)NNc1cnccn1 + Cc1cncc(-c2nc(NCCc3c[nH]c4ccccc34)c3ncn(C(C)C)c3n2)c1 | 21.9

Next compound, viability, T/C to be filled in.
Per the records, this compound ( CCN(c1cc(-c2ccc(CN3CCOCC3)cc2)cc(C(=O)NCc2c(C)cc(C)[nH]c2=O)c1C)C1CCOCC1 + CC(CO)NC(=O)c1cc(-c2ccc(Cl)cc2)nn(-c2cnn(C)c2)c1=O ) has viability, T/C equal to 98.5

---

Test system: 786-0 complex spheroids with HUVEC/MSC, growth % test/control
Experiment: Anticancer human tumor 786-0 cell line growth inhibition [AhR];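 note: compound exposure lasted seven days before the read-out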
Conditions: second compound 0.316 µM; first compound 0.000316 µM; hits give low values
property.measured: viability, T/C (%)
Quick note: give the figure in %, leave out the unit.

Per the records, this compound ( Cn1ncnc1C1c2n[nH]c(=O)c3cc(F)cc(c23)NC1c1ccc(F)cc1 (stereo unspecified) + CC(CO)NC(=O)c1cc(-c2ccc(Cl)cc2)nn(-c2cnn(C)c2)c1=O ) has viability, T/C equal to 101

Per the records, this compound ( CC[C@@]1(O)C(=O)OCc2c1cc1n(c2=O)Cc2cc3c(CN(C)C)c(O)ccc3nc2-1 + Cc1cncc(-c2nc(NCCc3c[nH]c4ccccc34)c3ncn(C(C)C)c3n2)c1 ) has viability, T/C equal to 113

Per the records, this compound ( Cn1ncnc1C1c2n[nH]c(=O)c3cc(F)cc(c23)NC1c1ccc(F)cc1 (stereo unspecified) + Cc1cncc(-c2nc(NCCc3c[nH]c4ccccc34)c3ncn(C(C)C)c3n2)c1 ) has viability, T/C equal to 117

Per the records, this compound ( CC[C@@]1(O)C(=O)OCc2c1cc1n(c2=O)Cc2cc3c(CN(C)C)c(O)ccc3nc2-1 + CC(CO)NC(=O)c1cc(-c2ccc(Cl)cc2)nn(-c2cnn(C)c2)c1=O ) has viability, T/C equal to 106

Per the records, this compound ( CC[C@@]1(O)C(=O)OCc2c1cc1n(c2=O)Cc2cc3c(CN(C)C)c(O)ccc3nc2-1 + Cc1ccccc1N=Nc1ccc(NC(=O)c2ccnn2C)c(C)c1 ) has viability, T/C equal to 101

Per the records, this compound ( Cn1ncnc1C1c2n[nH]c(=O)c3cc(F)cc(c23)NC1c1ccc(F)cc1 (stereo unspecified) + Cc1ccccc1N=Nc1ccc(NC(=O)c2ccnn2C)c(C)c1 ) has viability, T/C equal to 103
